# Experimental System: T1, EsCas13d, nuclease-dead (Eubacterium siraeum, UniProt B0MS50, R295A;H300A;R849A;H854A)
# T1 sequence: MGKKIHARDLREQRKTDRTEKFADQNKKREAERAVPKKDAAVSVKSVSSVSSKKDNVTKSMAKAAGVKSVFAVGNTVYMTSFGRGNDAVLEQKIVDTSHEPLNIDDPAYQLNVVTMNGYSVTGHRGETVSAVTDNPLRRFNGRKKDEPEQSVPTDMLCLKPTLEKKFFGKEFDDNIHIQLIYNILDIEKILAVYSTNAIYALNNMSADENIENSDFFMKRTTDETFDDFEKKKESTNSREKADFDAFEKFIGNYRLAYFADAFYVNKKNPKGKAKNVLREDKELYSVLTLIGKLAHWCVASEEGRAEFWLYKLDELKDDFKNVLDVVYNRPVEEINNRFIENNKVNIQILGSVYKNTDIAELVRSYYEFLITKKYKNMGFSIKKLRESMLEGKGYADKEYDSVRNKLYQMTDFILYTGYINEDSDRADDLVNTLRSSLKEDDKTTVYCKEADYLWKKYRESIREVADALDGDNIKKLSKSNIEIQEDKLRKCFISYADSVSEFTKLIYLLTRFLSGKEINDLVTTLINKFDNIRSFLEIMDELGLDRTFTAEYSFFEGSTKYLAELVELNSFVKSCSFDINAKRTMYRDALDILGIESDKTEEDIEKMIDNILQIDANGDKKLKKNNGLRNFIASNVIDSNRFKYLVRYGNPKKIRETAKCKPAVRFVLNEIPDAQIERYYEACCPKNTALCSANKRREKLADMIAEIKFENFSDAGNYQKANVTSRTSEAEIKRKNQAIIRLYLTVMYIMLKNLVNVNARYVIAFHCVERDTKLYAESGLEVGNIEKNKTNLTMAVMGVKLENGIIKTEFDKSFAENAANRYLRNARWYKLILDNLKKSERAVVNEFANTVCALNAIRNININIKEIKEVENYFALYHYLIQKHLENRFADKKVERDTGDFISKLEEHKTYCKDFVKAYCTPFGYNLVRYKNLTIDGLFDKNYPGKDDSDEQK
# Assay Protocol: crRNA (strand 1, pre-loaded); Mg2+; 40 mM Tris-HCl pH 7.5, 150 mM NaCl, 6 mM MgCl2, 1 mM DTT, 0.1% Tween-20, 0.2 mg/ml BSA; 25 C; 10 min per concentration, then washed
# Condition Description: tags: His6-TwinStrep-SUMO cleaved; N-terminal SNAP kept (SNAP-Surface 488); label: 3' end held by stalled T7 RNA polymerase
Please respond with reported pKd for every item in the list.
The scale used: pKd is minus the common logarithm of the concentration in molar units.

So what's the measured pKd for this one? target 1 MT 5'PFS UGC 3'PFS CCU (mixed) RNA 1: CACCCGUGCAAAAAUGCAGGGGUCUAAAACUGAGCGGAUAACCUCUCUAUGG RNA 2: GGGAAUGGAUCCACAUCUACGAAUUCUGCCCAUAGAGAGGUUAUCCGCUCACCUAGAUCGGAAGAGCACACGU
7.81

Quick one: target 1 A9G,G12U (mixed) RNA 1: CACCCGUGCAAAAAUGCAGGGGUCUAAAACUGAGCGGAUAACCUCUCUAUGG RNA 2: GGGAAUGGAUCCACAUCUACGAAUUCGUACCAUAGAGAGUUUGUCCGCUCACCGAGAUCGGAAGAGCACACGU
7.90

Entry source: paper PMC10786891
